B1: STEAP1 (parent)
chain: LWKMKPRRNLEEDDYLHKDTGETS

Variants of: B1
TEST PROTOCOL: protein stability index of a GFP-peptide fusion (GPS, HEK-293T) (PSI 1-6); higher = more stable;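 further: lentivirally expressed fusions sorted by FACS into six bins by GFP to DsRed ratio, PSI derived from sequencing read proportions per bin multiplied by bin number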
CONDITIONS: c terminus: a fixed tail appended
Overview of reported protein stability index across a group of variants:
MEASURED METRIC: protein stability index

INPUT SEQUENCE: LWKMIPRRNLEEDDYLHKDTGETS [K5I]
VAL: 3.36

INPUT SEQUENCE: LWKMKPRRNREEDDYLHKDTGETS [L10R]
VAL: 4.24

INPUT SEQUENCE: LWKMKPRRNLEEDDYLHKDTGEWS [T23W]
VAL: 3.54

INPUT SEQUENCE: LWKMKPRRNVEEDDYLHKDTGETS [L10V]
VAL: 4.34

INPUT SEQUENCE: LWKMKPGRNLEEDDYLHKDTGETS [R7G]
VAL: 4.42

INPUT SEQUENCE: LWKIKPRRNLEEDDYLHKDTGETS [M4I]
VAL: 4.36

INPUT SEQUENCE: LWKSKPRRNLEEDDYLHKDTGETS [M4S]
VAL: 4.69

INPUT SEQUENCE: LWKMKPRRNLEEDYYLHKDTGETS [D14Y]
VAL: 3.87

INPUT SEQUENCE: LWKMRPRRNLEEDDYLHKDTGETS [K5R]
VAL: 4.11

INPUT SEQUENCE: DWKMKPRRNLEEDDYLHKDTGETS [L1D]
VAL: 5.23

INPUT SEQUENCE: LWKMKPRRNLEEDDYLHKDTGETL [S24L]
VAL: 4.1

INPUT SEQUENCE: LEKMKPRRNLEEDDYLHKDTGETS [W2E]
VAL: 5.45

INPUT SEQUENCE: LWKMKPWRNLEEDDYLHKDTGETS [R7W]
VAL: 4.07

INPUT SEQUENCE: LTKMKPRRNLEEDDYLHKDTGETS [W2T]
VAL: 5.22

INPUT SEQUENCE: LWKMKPRRNLEEDDYLHKDTGETG [S24G]
VAL: 4.46

meta.source: the supplement of paper PMC10567573
